meta.source: ChEMBL document CHEMBL4028818

# Test summary: Clearance in Sprague-Dawley rat at 5 mg/kg, iv administered as single bolus dose
# Type: ADME, organism-based
# Experimental setup: in vivo
Experimental readout: clearance (mL/min/kg)
Give bare numbers, in mL/min/kg.

Prompt line: Entry `CC1(C)Oc2cc(-c3cccc(OC(F)(F)F)c3)ccc2-c2[nH]c(-c3c(F)cccc3Cl)nc21` : reported clearance = ?
Response line: 3.63

---
Prompt line: Entry `CC1(C)Oc2cc(C#Cc3cc(Cl)ccc3F)ccc2-c2[nH]c(-c3c(F)cccc3Cl)nc21` : reported clearance = ?
Response line: 11.1

###

Give measured pIC50 for each item. Keep answers brief.
# Target: Prostaglandin G/H synthase 1 (Homo sapiens)
# Sequence (P23219 whole entry): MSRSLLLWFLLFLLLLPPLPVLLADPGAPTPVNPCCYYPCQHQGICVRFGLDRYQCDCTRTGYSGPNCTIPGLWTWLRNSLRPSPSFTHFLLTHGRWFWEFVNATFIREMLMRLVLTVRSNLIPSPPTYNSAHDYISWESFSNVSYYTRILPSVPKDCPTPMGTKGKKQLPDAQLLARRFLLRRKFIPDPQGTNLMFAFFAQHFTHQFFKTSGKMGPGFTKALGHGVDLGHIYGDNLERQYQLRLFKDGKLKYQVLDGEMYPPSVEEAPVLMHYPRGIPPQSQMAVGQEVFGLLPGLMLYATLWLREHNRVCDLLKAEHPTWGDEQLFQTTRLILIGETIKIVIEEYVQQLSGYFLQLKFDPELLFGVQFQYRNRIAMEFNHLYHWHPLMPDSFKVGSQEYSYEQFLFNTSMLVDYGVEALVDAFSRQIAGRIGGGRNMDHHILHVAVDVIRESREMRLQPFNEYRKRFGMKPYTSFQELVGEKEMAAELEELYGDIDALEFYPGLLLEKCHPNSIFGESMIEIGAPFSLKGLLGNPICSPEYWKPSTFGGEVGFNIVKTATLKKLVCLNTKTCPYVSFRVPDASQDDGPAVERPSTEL
# Test summary: Inhibition of COX1 in human U937 cells assessed as decrease in PGE2 release using arachidonic acid as substrate preincubated for 15 mins followed by arachidonic acid addition measured after 5 mins
Numbers only, as −log10 of the molar value.

Required: pIC50, one value per compound below.
1. CC1(C)Oc2cc(C#Cc3cc(Cl)ccc3F)ccc2-c2[nH]c(-c3c(F)cccc3Cl)nc21
2. CC1(C)Oc2cc(-c3cccc(OC(F)(F)F)c3)ccc2-c2[nH]c(-c3c(F)cccc3Cl)nc21

Response line:
7.22
5.17

Prompt line: Entry `CC1(C)Oc2cc(-c3cccc(C(F)(F)F)c3)ccc2-c2[nH]c(-c3c(F)cccc3Cl)nc21` : reported pIC50 = ?
Response line: 5.08

###

# Target: Prostaglandin G/H synthase 2 (Homo sapiens)
# Sequence (P35354 whole entry): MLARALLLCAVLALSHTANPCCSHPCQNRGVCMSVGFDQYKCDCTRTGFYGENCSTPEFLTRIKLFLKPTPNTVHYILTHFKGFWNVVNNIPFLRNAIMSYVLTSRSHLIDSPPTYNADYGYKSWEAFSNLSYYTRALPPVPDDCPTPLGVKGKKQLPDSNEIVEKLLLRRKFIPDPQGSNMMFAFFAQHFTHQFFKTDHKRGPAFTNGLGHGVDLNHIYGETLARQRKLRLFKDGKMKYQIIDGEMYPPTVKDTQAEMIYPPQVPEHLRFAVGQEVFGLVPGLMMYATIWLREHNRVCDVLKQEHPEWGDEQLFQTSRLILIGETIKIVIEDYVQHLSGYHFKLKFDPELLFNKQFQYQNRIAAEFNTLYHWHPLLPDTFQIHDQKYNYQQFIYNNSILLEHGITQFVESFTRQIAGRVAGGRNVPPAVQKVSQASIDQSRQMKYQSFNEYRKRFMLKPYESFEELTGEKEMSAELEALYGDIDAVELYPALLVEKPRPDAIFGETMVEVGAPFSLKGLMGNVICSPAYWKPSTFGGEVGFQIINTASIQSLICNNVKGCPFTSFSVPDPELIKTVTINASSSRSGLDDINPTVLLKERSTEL
# Test summary: Inhibition of recombinant human N-terminal His-tagged COX2 expressed in baculovirus infected Sf21 insect cells assessed as decrease in PGE2 release using arachidonic acid as substrate preincubated for 15 mins followed by arachidonic acid addition measured after 5 mins
Experimental readout: IC50

Recorded results for 2 compounds are shown here.
Prompt line: Entry `CC1(C)Oc2cc(C#Cc3cc(Cl)ccc3F)ccc2-c2[nH]c(-c3c(F)cccc3Cl)nc21` : reported IC50 = ?
Response line: 9.88 µM

Prompt line: Entry `CC1(C)Oc2cc(-c3cccc(C(F)(F)F)c3)ccc2-c2[nH]c(-c3c(F)cccc3Cl)nc21` : reported IC50 = ?
Response line: > 10 µM

---
Prompt line: Entry `CC1(C)Oc2cc(-c3cccc(OC(F)(F)F)c3)ccc2-c2[nH]c(-c3c(F)cccc3Cl)nc21` : reported IC50 = ?
Response line: > 10 µM

###

# Test summary: Cmax in Guinea pig at 100 mg/kg, po
# Format: ADME, organism-based, Cavia porcellus
# Parameters: dose 100 mg/kg, route oral
# Experimental setup: in vivo
Experimental readout: Cmax (ng/mL)
Answers are plain numbers, in ng/mL.

Prompt line: Entry `CC1(C)Oc2cc(-c3cccc(OC(F)(F)F)c3)ccc2-c2[nH]c(-c3c(F)cccc3Cl)nc21` : reported Cmax = ?
Response line: 803

###

# Target: UniProt:O14684
# Sequence (O14684 whole entry): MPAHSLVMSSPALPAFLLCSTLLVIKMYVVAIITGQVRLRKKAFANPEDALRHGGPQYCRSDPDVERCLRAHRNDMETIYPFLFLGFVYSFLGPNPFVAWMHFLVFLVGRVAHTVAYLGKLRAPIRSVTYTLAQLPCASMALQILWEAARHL
# Test summary: Inhibition of mPGES-1 in human A549 cells assessed as decrease in IL1beta induced PGE2 release preincubated for 30 mins followed by IL-1beta addition after 16 to 20 hrs by HTRF method
# Format: cell-based
Categorized via IC50: bottom end = under 700 nM, midrange = from 700 nM up to 1000 nM, top end = 1000 nM and over

Example results:
Prompt line: The entry to classify is `CC1(C)Oc2cc(C#Cc3ccccc3OC(F)(F)F)ccc2-c2[nH]c(-c3c(F)cccc3Cl)nc21` ; which class holds it?
Response line: bottom end

Prompt line: The entry to classify is `CC1(C)Oc2cc(C#Cc3ccccc3OC(F)(F)F)ccc2-c2[nH]c(-c3c(C#N)cccc3C#N)nc21` ; which class holds it?
Response line: bottom end

Prompt line: The entry to classify is `CC1(C)Oc2cc(C#Cc3cc(C(F)(F)F)ccc3F)ccc2-c2nc(-c3c(F)cccc3Cl)[nH]c21` ; which class holds it?
Response line: bottom end

Prompt line: The entry to classify is `CC1(C)Oc2cc(C#Cc3ccc(F)c(C(F)(F)F)c3)ccc2-c2nc(-c3c(F)cccc3Cl)[nH]c21` ; which class holds it?
Response line: top end

Prompt line: The entry to classify is `CC1(C)Oc2cc(C#Cc3cc(Cl)ccc3F)ccc2-c2[nH]c(-c3c(F)cccc3Cl)nc21` ; which class holds it?
Response line: midrange

---
Prompt line: The entry to classify is `CC1(C)Oc2cc(C#Cc3cc(Cl)ccc3Cl)ccc2-c2nc(-c3c(C#N)cccc3C#N)[nH]c21` ; which class holds it?
Response line: top end

Prompt line: The entry to classify is `CC1(C)Oc2cc(-c3cccc(OC(F)(F)F)c3)ccc2-c2[nH]c(-c3c(F)cccc3Cl)nc21` ; which class holds it?
Response line: midrange

Prompt line: The entry to classify is `CC1(C)Oc2cc(C#Cc3cc(C(F)(F)F)ccc3Cl)ccc2-c2nc(-c3c(C#N)cccc3C#N)[nH]c21` ; which class holds it?
Response line: top end

Prompt line: The entry to classify is `CC1(C)Oc2cc(C#Cc3ccccc3C(F)(F)F)ccc2-c2nc(-c3c(C#N)cccc3C#N)[nH]c21` ; which class holds it?
Response line: bottom end

Prompt line: The entry to classify is `CC1(C)Oc2cc(C#Cc3ccc(Cl)cc3C(F)(F)F)ccc2-c2nc(-c3c(F)cccc3Cl)[nH]c21` ; which class holds it?
Response line: top end

Prompt line: The entry to classify is `CC1(C)Oc2cc(C#Cc3cc(Cl)ccc3Cl)ccc2-c2[nH]c(-c3c(F)cccc3Cl)nc21` ; which class holds it?
Response line: top end

Prompt line: The entry to classify is `CC1(C)Oc2cc(-c3cccc(C(F)(F)F)c3)ccc2-c2[nH]c(-c3c(F)cccc3Cl)nc21` ; which class holds it?
Response line: bottom end

Prompt line: The entry to classify is `CC1(C)Oc2cc(C#Cc3c(F)cccc3C(F)(F)F)ccc2-c2nc(-c3c(C#N)cccc3C#N)[nH]c21` ; which class holds it?
Response line: midrange

###

# Target: Cytochrome P450 3A4 (Homo sapiens)
# Sequence (P08684 whole entry): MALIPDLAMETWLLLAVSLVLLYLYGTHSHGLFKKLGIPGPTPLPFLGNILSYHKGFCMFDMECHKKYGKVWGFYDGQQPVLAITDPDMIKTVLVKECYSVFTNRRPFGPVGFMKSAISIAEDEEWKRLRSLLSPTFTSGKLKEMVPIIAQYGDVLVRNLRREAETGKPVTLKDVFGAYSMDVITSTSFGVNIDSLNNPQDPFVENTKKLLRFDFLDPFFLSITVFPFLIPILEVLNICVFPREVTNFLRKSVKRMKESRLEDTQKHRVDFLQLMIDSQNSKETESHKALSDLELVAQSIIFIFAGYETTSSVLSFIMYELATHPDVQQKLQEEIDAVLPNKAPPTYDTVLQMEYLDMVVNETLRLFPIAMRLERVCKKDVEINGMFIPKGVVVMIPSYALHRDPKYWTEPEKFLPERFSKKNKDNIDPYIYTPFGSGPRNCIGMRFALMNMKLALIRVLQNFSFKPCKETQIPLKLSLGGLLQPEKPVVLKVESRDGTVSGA
# Test summary: Inhibition of CYP3A4 in human liver microsomes at 1 uM measured after 20 mins in presence of NADPH by LC/MS/MS analysis
# Assay type: ADME
Experimental readout: inhibition (INH)

Prompt line: Entry `CC1(C)Oc2cc(-c3cccc(OC(F)(F)F)c3)ccc2-c2[nH]c(-c3c(F)cccc3Cl)nc21` : reported inhibition (INH) = ?
Response line: Not Active

Prompt line: Entry `CC1(C)Oc2cc(-c3cccc(C(F)(F)F)c3)ccc2-c2[nH]c(-c3c(F)cccc3Cl)nc21` : reported inhibition (INH) = ?
Response line: Not Active

Prompt line: Entry `CC1(C)Oc2cc(C#Cc3cc(Cl)ccc3F)ccc2-c2[nH]c(-c3c(F)cccc3Cl)nc21` : reported inhibition (INH) = ?
Response line: Not Active

Prompt line: Entry `CC1(C)Oc2cc(C#Cc3ccccc3C(F)(F)F)ccc2-c2nc(-c3c(C#N)cccc3C#N)[nH]c21` : reported inhibition (INH) = ?
Response line: Not Active

###

Give measured remaining at 1 h, 1 µM for each item. Keep answers brief.
# Test summary: Metabolic stability in human liver microsomes assessed as parent compound remaining at 1 uM after 60 mins in presence of NADPH by LC/MS/MS analysis
# Assay type: ADME, microsome
# Experimental setup: read-out: Stability
Give bare numbers, in %.

Prompt line: Entry `CC1(C)Oc2cc(C#Cc3ccccc3C(F)(F)F)ccc2-c2nc(-c3c(C#N)cccc3C#N)[nH]c21` : reported remaining at 1 h, 1 µM = ?
Response line: 81

Prompt line: Entry `CC1(C)Oc2cc(C#Cc3cc(Cl)ccc3F)ccc2-c2[nH]c(-c3c(F)cccc3Cl)nc21` : reported remaining at 1 h, 1 µM = ?
Response line: 76

Prompt line: Entry `CC1(C)Oc2cc(-c3cccc(C(F)(F)F)c3)ccc2-c2[nH]c(-c3c(F)cccc3Cl)nc21` : reported remaining at 1 h, 1 µM = ?
Response line: 89

Let us move to another entry and its remaining at 1 h, 1 µM.
Prompt line: Entry `CC1(C)Oc2cc(-c3cccc(OC(F)(F)F)c3)ccc2-c2[nH]c(-c3c(F)cccc3Cl)nc21` : reported remaining at 1 h, 1 µM = ?
Response line: 84

###

# Target: UniProt P10635
# Sequence (P10635 whole entry): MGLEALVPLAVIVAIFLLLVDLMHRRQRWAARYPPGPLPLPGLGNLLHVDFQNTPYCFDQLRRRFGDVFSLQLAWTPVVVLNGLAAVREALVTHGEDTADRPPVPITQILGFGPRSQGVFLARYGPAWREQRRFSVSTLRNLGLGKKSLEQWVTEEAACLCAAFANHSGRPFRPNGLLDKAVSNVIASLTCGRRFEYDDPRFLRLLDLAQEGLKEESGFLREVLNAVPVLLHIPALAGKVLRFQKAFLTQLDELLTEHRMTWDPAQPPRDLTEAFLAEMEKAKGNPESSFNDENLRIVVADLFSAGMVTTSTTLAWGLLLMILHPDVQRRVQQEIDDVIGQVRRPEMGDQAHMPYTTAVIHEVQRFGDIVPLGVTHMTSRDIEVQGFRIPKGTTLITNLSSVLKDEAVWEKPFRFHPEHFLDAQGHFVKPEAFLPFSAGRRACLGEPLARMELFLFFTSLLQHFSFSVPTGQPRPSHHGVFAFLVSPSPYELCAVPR
# Test summary: Inhibition of CYP2D6 in human liver microsomes at 1 uM measured after 20 mins in presence of NADPH by LC/MS/MS analysis
# Assay type: ADME
Experimental readout: inhibition (INH)

Prompt line: # query: inhibition (INH) | item `CC1(C)Oc2cc(C#Cc3ccccc3C(F)(F)F)ccc2-c2nc(-c3c(C#N)cccc3C#N)[nH]c21` | system: UniProt P10635
Response line: Not Active

Prompt line: # query: inhibition (INH) | item `CC1(C)Oc2cc(-c3cccc(C(F)(F)F)c3)ccc2-c2[nH]c(-c3c(F)cccc3Cl)nc21` | system: UniProt P10635
Response line: Not Active

Prompt line: # query: inhibition (INH) | item `CC1(C)Oc2cc(C#Cc3cc(Cl)ccc3F)ccc2-c2[nH]c(-c3c(F)cccc3Cl)nc21` | system: UniProt P10635
Response line: Not Active

Prompt line: # query: inhibition (INH) | item `CC1(C)Oc2cc(-c3cccc(OC(F)(F)F)c3)ccc2-c2[nH]c(-c3c(F)cccc3Cl)nc21` | system: UniProt P10635
Response line: Not Active
